target or test system: FAD-linked sulfhydryl oxidase ALR (Homo sapiens, UniProt P55789)
Sequence (P55789 whole entry): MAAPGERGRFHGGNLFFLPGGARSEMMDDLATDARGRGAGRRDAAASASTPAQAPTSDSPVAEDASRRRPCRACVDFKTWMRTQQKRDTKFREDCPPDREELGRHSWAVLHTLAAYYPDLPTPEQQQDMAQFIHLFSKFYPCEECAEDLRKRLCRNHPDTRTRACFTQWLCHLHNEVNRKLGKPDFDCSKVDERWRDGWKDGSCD
procedure text: inhibitors of human ALR sulfhydryl oxidase, dose response, biochemical, H2O2 detection, luminescence, cherry-pick (AID 493248)
Calls of active or inactive are those of the source. Rule as the data show it: actives have a measured AC50 and inactives only a lower limit.
Possible outcomes: active, inactive

| molecule | target or test system | discrete label |
| --- | --- | --- |
| Cc1cccc(N2CCN(C(=O)c3ccncc3)CC2C)c1 (stereo not given) | FAD-linked sulfhydryl oxidase ALR (Homo sapiens, UniProt P55789) | active |
| COc1cccc(NC(=O)N2CCN(c3cccc(C)c3)C(C)C2)c1 (stereo not given) | FAD-linked sulfhydryl oxidase ALR (Homo sapiens, UniProt P55789) | active |
| Sc1nnc(-c2cccc3ccccc23)n1-c1cccnc1 | FAD-linked sulfhydryl oxidase ALR (Homo sapiens, UniProt P55789) | active |
| Cc1ccc(N2C(=O)CSC2c2cccnc2)cc1F (stereo not given) | FAD-linked sulfhydryl oxidase ALR (Homo sapiens, UniProt P55789) | active |
| C=C(c1ccc(O)cc1)c1ccc(O)cc1 | FAD-linked sulfhydryl oxidase ALR (Homo sapiens, UniProt P55789) | active |
| CN(C)c1cccc(C(=O)NCc2ccccc2)c1 | FAD-linked sulfhydryl oxidase ALR (Homo sapiens, UniProt P55789) | active |
| COc1cccc(-n2c(S)nnc2CCn2nc(C)c([N+](=O)[O-])c2C)c1 | FAD-linked sulfhydryl oxidase ALR (Homo sapiens, UniProt P55789) | active |
| CCCc1cc(C(=O)N2CCCC(N3CCN(c4ccc(F)cc4)CC3)C2)no1 (stereo not given) | FAD-linked sulfhydryl oxidase ALR (Homo sapiens, UniProt P55789) | inactive |
| Cc1cccc(Sc2c([N+](=O)[O-])ncn2C)c1 | FAD-linked sulfhydryl oxidase ALR (Homo sapiens, UniProt P55789) | active |
| COc1ccc(N2CCN(C(=O)CCNC(=O)Cn3ccc4ccccc4c3=O)CC2)cc1 | FAD-linked sulfhydryl oxidase ALR (Homo sapiens, UniProt P55789) | active |
